Molecular target: T1, Cynomolgus CD3εδ Fc heterodimer (Cy CD3ε Fc / CD3δ Fc-HIS) (cynomolgus, UniProt Q95LI8 22-100)
T1 chain 1: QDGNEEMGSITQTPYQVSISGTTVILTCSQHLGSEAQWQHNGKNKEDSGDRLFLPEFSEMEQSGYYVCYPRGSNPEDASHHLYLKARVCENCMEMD
T1 chain 2: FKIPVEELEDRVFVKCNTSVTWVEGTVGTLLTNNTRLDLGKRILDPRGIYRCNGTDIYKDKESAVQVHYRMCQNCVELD
Assay: BLI (Octet), IgG on AHC sensor, pH 6.0
Recorded Endpoint: koff (s⁻¹)
Write down the numeric answer in s⁻¹ and omit the unit.

Observe how each entry below is paired with its result.
>  <Binder>
SAD10319_P05_A01 (ADI-57395) (antibody, V domains shown, IgG; also called Ab121) VH: QVQLVQSGAEVKKPGASVKVSCKASGYTFTAYTMHWVRQAPGHRLEWMGWINPDTGATDYSQKFQGRVTITRDTSASTAYMELSSLRSEDTAVYYCARDAYHHYFYDVWGQGTLVTVSS VL: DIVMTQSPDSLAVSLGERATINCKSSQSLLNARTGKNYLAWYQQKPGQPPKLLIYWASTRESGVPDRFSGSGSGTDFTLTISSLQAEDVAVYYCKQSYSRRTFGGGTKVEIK

>  <koff / s⁻¹>
0.0251

$$$$
>  <Binder>
SAD10319_P02_G06 (ADI-48632) (antibody, V domains shown, IgG; also called Ab15) VH: QVQLVQSGAEVKKPGASVKVSCKASGYTFTSYAMHWVRQAPGQRLEWMGWINPDTGATVYSQKFQGRVTITRDTSASTAYMELSSLRSEDTAVYYCARDAYHHYFYDVWGQGTLVTVSS VL: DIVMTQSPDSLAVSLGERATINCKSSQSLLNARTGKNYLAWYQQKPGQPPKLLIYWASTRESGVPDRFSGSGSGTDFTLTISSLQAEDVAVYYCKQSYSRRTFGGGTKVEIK

>  <koff / s⁻¹>
0.0242

$$$$

# input for lookup
Prompt: Request the reported koff associated with SAD10318_P04_F11 (ADI-57293) (antibody, V domains shown, IgG; also called Ab221) VH: QVQLVQSGAEVKKPGASVKVSCKASGFNTKDYYMHWVRQAPGQRLEWMGWIDLENANTIYDAKFQGRVTITRDTSASTAYMELSSLRSEDTAVYYCARDAHGRYHYDVWGQGTLVTVSS VL: DIVMTQSPDSLAVSLGERATINCKSSQSLLNARTGHNHLAWYQQKPGQPPKLLIYWASTRESGVPDRFSGSGSGTDFTLTISSLQAEDVAVYYCKQSYSRRTFGGGTKVEIK
Completion: 0.00183
